# credit: ChEMBL document CHEMBL4376828

Biological target: Receptor-interacting serine/threonine-protein kinase 2 (Homo sapiens)
Sequence (O43353 whole entry, the tested form may be a part): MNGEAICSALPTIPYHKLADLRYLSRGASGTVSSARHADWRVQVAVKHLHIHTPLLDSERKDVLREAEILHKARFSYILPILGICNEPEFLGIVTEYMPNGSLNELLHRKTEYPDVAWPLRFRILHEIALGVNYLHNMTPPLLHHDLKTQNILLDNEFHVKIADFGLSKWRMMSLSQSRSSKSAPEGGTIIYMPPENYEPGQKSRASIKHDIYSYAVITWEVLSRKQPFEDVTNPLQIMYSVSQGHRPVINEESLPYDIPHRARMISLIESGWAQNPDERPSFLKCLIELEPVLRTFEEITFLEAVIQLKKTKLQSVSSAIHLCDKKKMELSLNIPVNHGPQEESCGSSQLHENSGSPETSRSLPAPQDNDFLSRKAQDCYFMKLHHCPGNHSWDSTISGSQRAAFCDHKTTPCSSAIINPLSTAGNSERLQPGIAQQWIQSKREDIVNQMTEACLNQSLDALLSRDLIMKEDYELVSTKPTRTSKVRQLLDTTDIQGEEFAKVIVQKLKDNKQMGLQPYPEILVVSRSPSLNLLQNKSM
Assay: Inhibition of recombinant human His-tagged RIPK2 (8 to 317 residues) incubated for 1 hr by ADP-Glo assay
MEASUREMENT TYPE: IC50 (nM)
Reply with just the number (in nM).

Ask | Look up IC50 with Receptor-interacting serine/threonine-protein kinase 2 (Homo sapiens) for this compound: Cc1ccc(CCCCN2C(=O)N[C@H](Cc3c[nH]c4c(Cl)cccc34)C2=O)cc1C#Cc1cnc2cccnn12
Reply | 1190

----------
Reported pIC50 values are given for each entry in this list.
Target: UniProtKB P14902
Sequence (P14902 whole entry): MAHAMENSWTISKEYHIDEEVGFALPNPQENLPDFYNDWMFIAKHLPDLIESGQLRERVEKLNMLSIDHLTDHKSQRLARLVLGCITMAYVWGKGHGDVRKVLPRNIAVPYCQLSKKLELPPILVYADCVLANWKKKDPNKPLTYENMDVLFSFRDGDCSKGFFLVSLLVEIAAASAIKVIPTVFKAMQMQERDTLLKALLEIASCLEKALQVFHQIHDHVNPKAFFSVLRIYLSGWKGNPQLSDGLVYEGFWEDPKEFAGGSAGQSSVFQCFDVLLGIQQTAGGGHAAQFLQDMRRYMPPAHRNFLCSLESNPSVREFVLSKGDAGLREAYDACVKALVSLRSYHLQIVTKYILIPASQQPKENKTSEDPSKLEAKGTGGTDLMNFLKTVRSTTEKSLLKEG
Assay: Inhibition of recombinant human IDO using L-Trp as substrate incubated for 60 mins
By convention, pIC50 is the negative base-10 log of a molar concentration.

>  <COMPOUND>
O=C1NC(=S)NC1Cc1c[nH]c2ccccc12 (configuration not stated)

>  <pIC50>
6.96

$$$$

Now look at this entry.
Ask | Fill in the blank: the reported pIC50 of CN1C(=O)C(Cc2c[nH]c3ccccc23)NC1=S (configuration not stated) [NECROSTATIN] is ____.
Reply | 6.96
